These entries and their values trace back to paper PMC11514049.

biological target: UniProtKB W8PFC5; assay: Whole-cell patch clamp (QPatch) of X. tropicalis Tmem16a transfected into HEK293 cells; settings: free [Ca2+]i varied, fixed depolarisation voltage; read-out: EC50 of intracellular calcium for current conductance
PROPERTY_LABEL: pEC50
The scale used: pEC50 is minus the common logarithm of the concentration in molar units.

So for [Ca+2] [intracellular calcium, calcium] , the logged pEC50 turned out to be 6.64

====

biological target: X. tropicalis Tmem16a (Xenopus tropicalis); assay: Whole-cell patch clamp (QPatch) of X. tropicalis Tmem16a transfected into HEK293 cells; type: cell-based; conditions: maximally-active current, 338 nM free [Ca2+]i (EC100), +70 mV, HEK293, mean ± SEM; read-out: IC50 X. tropicalis Tmem16a
Sequence (W8PFC5 entry or part of it): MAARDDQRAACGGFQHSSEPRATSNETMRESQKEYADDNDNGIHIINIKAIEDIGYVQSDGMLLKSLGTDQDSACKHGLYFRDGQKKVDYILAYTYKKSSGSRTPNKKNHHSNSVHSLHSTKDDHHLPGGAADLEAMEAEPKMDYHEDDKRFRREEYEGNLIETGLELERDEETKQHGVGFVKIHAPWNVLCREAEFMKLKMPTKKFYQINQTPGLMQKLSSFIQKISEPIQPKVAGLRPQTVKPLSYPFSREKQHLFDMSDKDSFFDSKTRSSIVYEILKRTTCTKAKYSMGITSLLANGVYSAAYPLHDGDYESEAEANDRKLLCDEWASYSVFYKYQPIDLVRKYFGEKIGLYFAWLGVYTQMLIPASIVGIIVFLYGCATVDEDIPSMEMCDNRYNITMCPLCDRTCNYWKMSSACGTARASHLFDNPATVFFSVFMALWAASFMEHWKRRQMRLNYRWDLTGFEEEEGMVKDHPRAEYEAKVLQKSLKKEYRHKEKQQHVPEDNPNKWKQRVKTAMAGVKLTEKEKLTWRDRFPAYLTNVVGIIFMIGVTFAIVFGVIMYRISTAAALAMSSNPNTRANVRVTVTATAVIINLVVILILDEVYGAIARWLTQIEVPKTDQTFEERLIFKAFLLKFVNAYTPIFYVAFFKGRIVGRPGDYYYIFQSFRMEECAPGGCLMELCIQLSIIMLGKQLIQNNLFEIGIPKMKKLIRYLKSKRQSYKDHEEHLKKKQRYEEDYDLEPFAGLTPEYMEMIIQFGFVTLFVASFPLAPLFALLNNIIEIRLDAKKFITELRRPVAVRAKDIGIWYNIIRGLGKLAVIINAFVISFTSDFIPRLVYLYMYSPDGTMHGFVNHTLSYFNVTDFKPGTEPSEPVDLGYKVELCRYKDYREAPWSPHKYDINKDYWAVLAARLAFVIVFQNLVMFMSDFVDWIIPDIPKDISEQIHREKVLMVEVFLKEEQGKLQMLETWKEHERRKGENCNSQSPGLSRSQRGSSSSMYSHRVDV
pIC50 values for the molecules below.
The scale used: pIC50 is minus the common logarithm of the concentration in molar units.

MOLECULE	pIC50
COc1ccccc1/C=N/NC(=O)COc1ccc(Cl)cc1C	7.01

Tested system X. tropicalis Tmem16a (Xenopus tropicalis); pIC50 recorded for O=C(O)c1c2ccccc2cc2ccccc12 was 3.84

Tested system X. tropicalis Tmem16a (Xenopus tropicalis); pIC50 recorded for COc1cc(Nc2ccc([N+](=O)[O-])cc2C(=O)O)cc2ccccc12 was 4.92

Tested system X. tropicalis Tmem16a (Xenopus tropicalis); pIC50 recorded for CC(C)(C)C1CCc2c(sc(NC(=O)c3ccco3)c2C(=O)O)C1 (stereo not shown) was 4.89

====

biological target: X. tropicalis Tmem16a (Xenopus tropicalis); assay: Whole-cell patch clamp (QPatch) of X. tropicalis Tmem16a transfected into HEK293 cells; format: cell-based
PROPERTY_LABEL: IC50 (µM)
Quick reminder: number only, in µM, skip the unit.

COMPOUND_STRUCTURE	TARGET_OR_SYSTEM	IC50 (µM)
CCc1oc2ccccc2c1C(=O)c1cc(Br)c(O)c(Br)c1	X. tropicalis Tmem16a (Xenopus tropicalis)	3.3

For the next question, use this molecule.
So for O=C(O)c1cccnc1Nc1cccc(C(F)(F)F)c1 , the logged IC50 turned out to be 85.1

====

pIC50 values for the molecules below.
Biological target: X. tropicalis Tmem16a (Xenopus tropicalis)
Assay: Whole-cell patch clamp (QPatch) of X. tropicalis Tmem16a transfected into HEK293 cells
Assay type: cell-based
Conditions: maximally-active current, 338 nM free [Ca2+]i (EC100), +70 mV, HEK293, mean ± SEM; read-out: IC50 X. tropicalis Tmem16a
Protocol: We cloned and expressed full-length X. tropicalis tmem16a in HEK293 cells. At 48 h post-transfection, channel conductance and pharmacological characteristics were examined by whole-cell voltage clamp. Tmem16a channel activity was evoked using membrane depolarisation in the presence of intracellular calcium, and resultant whole-cell currents measured using chloride-selective buffers. […]
pIC50: −log10 of the molar value.

MOLECULE	pIC50
O=C(O)c1ccc(/C=C2\SC(=S)N(c3cccc(C(F)(F)F)c3)C2=O)cc1 [CFTR Inh-172]	< 4.52

So for CCc1c(C)nc(SCC(=O)Nc2nc(-c3ccc(OC)cc3)cs2)[nH]c1=O [T16inh-A01] , the logged pIC50 turned out to be < 4.52

So for COC1=C(OC)C(=O)C(CCCCCCCCCCO)=C(C)C1=O [Idebenone] , the logged pIC50 turned out to be < 4.52
